From: PubChem BioAssay (NCI)

test system: M19-MEL melanoma; test: NCI tumour cell line growth inhibition, 48 h
Reported TGI values for the following compounds.

compound: Cc1ccc(NC(=O)C(=O)CC(=O)c2c(C)n([O-])c3ccccc3[n+]2=O)cc1
TGI: 36.1 µM
--
compound: CN1CC[C@]2(C)c3cc(O)ccc3CC3CCCC1C32C (stereo not given in full)
TGI: > 100 µM
--
compound: CN(C)CC1CCCC(CN(C)C)C1=NOC(=O)c1ccccc1 (stereo not given)
TGI: > 100 µM
--
compound: CCCCCCCCCCCCCCCCOCC(CP(=O)([O-])OCC[n+]1ccccc1)OC (stereo not given)
TGI: 25.2 µM
--
compound: Cc1c(C(=O)CC(=O)C(=O)Nc2ccc(Cl)cc2)[n+](=O)c2ccccc2n1[O-]
TGI: > 100 µM
--
compound: CC1=NN(C(=O)CC(=O)NC(=O)CC(=O)Nc2ccccc2F)C(=O)C1N=Nc1ccc([N+](=O)[O-])cc1 (stereo not given)
TGI: 92.8 µM
--
compound: Cn1ccc2c(C(=O)c3ccccc3)cccc2c1=O
TGI: > 100 µM
--
compound: COC(=O)NC12CC3CC(CC(F)(C3)C1)C2
TGI: > 100 µM
--
compound: O=C1CCCC(=O)N1CCc1c[nH]c2ccccc12
TGI: > 100 µM
--
compound: CSc1sc(=S)sc1C(=O)N(C)c1ccccc1
TGI: > 100 µM

---

Reported log10 of TGI values for the following compounds.
system: MALME-3M melanoma; assay: NCI tumour cell line growth inhibition, 48 h
experimentalReadout: log10 of TGI (log10 of the value in µM)

compound: COc1cc(/C=N/NC(=O)c2cnn3c2NC(c2ccccc2)C3)ccc1Oc1ccccc1 (stereo not drawn)
targetOrTestSystem: MALME-3M melanoma
log10 of TGI: 0.72

compound: COC(=O)[C@@H](NC(=O)N(CCC#N)CCCN(C(=O)N[C@H](Cc1ccccc1)C(=O)OC)c1ccccc1)C(C)C
targetOrTestSystem: MALME-3M melanoma
log10 of TGI: 1.97

compound: COc1cc(NC(=O)CSc2nc3ccc(C)cc3c(=O)n2Cc2ccccc2)cc(OC)c1OC
targetOrTestSystem: MALME-3M melanoma
log10 of TGI: 1.50

compound: CCN1Cc2c(ccc(F)c2C#N)O[C@@H](C)CNC(=O)c2c(N)nn3ccc1nc23
targetOrTestSystem: MALME-3M melanoma
log10 of TGI: 0.87

compound: COc1cc(Cl)cc(-c2nn(-c3cccc(NC(=O)Nc4cc(C(F)(F)F)cc(C(F)(F)F)c4)c3)cc2-c2ccncc2)c1
targetOrTestSystem: MALME-3M melanoma
log10 of TGI: 0.68

---

tested on: SR leukemia; assay: NCI tumour cell line growth inhibition, 48 h; in the data active means GI50 below about 0.43 µM; inactive means the rest
Labels: class 1 = active, class 0 = inactive

compound: COc1cc(-n2cc(-c3ccc(Cl)cc3)nc2SCc2cccc(C#N)c2)cc(OC)c1OC
labelValue: class 0
//
compound: CC(C)COCC(CN(Cc1ccccc1)c1ccccc1)N1CCCC1 (stereo not given)
labelValue: class 0
//
compound: CN(C)CC1C(=O)O[C@H]2[C@H]1CC/C(COC(=O)c1cc3ccccc3[nH]1)=C\CC[C@@]1(C)O[C@@H]21 (stereo not given in full)
labelValue: class 0
//
compound: N#CC1=C(N)Oc2c(sc3c(Br)cccc23)C1c1ccc(Br)cc1 (stereo not given)
labelValue: class 1
//
compound: COC(=O)CCC1CCC(c2cc(F)ccc2F)(S(=O)(=O)c2ccc(Cl)cc2)CC1 (stereo not given)
labelValue: class 0
//
compound: COc1ccc(/C(=N\O)c2cc(C)c(OC)c(C)c2)cc1O
labelValue: class 1
//
compound: O=C1C=CC[C@H](/C=C/c2ccccc2)O1
labelValue: class 0
//
compound: O=C(c1ccccc1)C(Br)C(Br)c1cccc([N+](=O)[O-])c1 (stereo not given)
labelValue: class 0
//
compound: CC[C@@]1(OC(=O)CN)C(=O)OCc2c1cc1n(c2=O)Cc2cc3c(N)cccc3nc2-1
labelValue: class 1
//
compound: Cc1cc2[nH]c(=O)c3c4ccccc4cn3c2cc1C
labelValue: class 0
